- testedTarget: Histamine H3 receptor (Mus musculus)
- testProtocol: In vivo antagonistic activity against histamine H3-receptor of Swiss mice brain after peroral administration
- Format: functional, organism-based
assayReadout: ED50

Worked examples follow.
[
  {
    "compound": "c1ccc2c(COCCCc3c[nH]cn3)cccc2c1",
    "ED50": "3.2 mg/kg"
  },
  {
    "compound": "Clc1ccc(C(OCCCc2c[nH]cn2)c2ccccc2)cc1 (stereo not given)",
    "ED50": "3.9 mg/kg"
  },
  {
    "compound": "c1ccc(C(OCCCc2c[nH]cn2)c2ccccc2)cc1",
    "ED50": "2.4 mg/kg"
  },
  {
    "compound": "Fc1ccc(C(OCCCc2c[nH]cn2)c2ccc(F)cc2)cc1",
    "ED50": "1.1 mg/kg"
  },
  {
    "compound": "Fc1ccc(C(OCCCc2c[nH]cn2)c2ccccc2)cc1 (stereo not given)",
    "ED50": "1.2 mg/kg"
  }
]

Form entry - test system: Histamine H3 receptor (Mus musculus); read-out: ED50; compound: S=C(NC1CCCCC1)N1CCC(c2cnc[nH]2)CC1 1 mg/kg

Form entry - test system: Histamine H3 receptor (Mus musculus); read-out: ED50; compound: Brc1ccc(C(OCCCc2c[nH]cn2)c2ccccc2)cc1 (stereo not given) 3.6 mg/kg

Source of measurements: ChEMBL document CHEMBL1151569
